B1: Hairpin Ribozyme (parent)
chain: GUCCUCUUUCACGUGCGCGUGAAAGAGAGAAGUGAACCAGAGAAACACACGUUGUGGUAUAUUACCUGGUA

Variants of: B1
Experiment: self-cleavage, relative activity (ratio to wild type); higher = more cleavage; co-transcriptional
Kindly supply the reported self-cleavage values for the records listed here.
Number only, no unit.

Prompt: Need self-cleavage of C6A U14G , thanks.
Response: 0.499

Prompt: Need self-cleavage of U70A A71G , thanks.
Response: 0.886

Prompt: Need self-cleavage of C3A G68A , thanks.
Response: 0.172

Prompt: Need self-cleavage of G34A A47G , thanks.
Response: 0.302

Prompt: Need self-cleavage of G15A G27C , thanks.
Response: 0.146

Prompt: Need self-cleavage of U5C G56A , thanks.
Response: 0.107

Prompt: Need self-cleavage of C10A G57A , thanks.
Response: 0.162

Prompt: Need self-cleavage of G27C A64C , thanks.
Response: 0.128

Prompt: Need self-cleavage of A24G U67G , thanks.
Response: 0.263

Prompt: Need self-cleavage of G15A U52G , thanks.
Response: 0.641

Prompt: Need self-cleavage of A26G A39G , thanks.
Response: 0.379

Prompt: Need self-cleavage of U2G G27A , thanks.
Response: 0.139

Prompt: Need self-cleavage of A59C U62A , thanks.
Response: 0.159

Prompt: Need self-cleavage of G25A A43U , thanks.
Response: 0.186

Prompt: Need self-cleavage of G15A G17C , thanks.
Response: 0.83

Prompt: Need self-cleavage of A44C U63G , thanks.
Response: 0.182

Prompt: Need self-cleavage of A47U G51C , thanks.
Response: 0.31

Prompt: Need self-cleavage of A28C A47G , thanks.
Response: 0.0559

Prompt: Need self-cleavage of A31C U33G , thanks.
Response: 0.0823

Prompt: Need self-cleavage of C6A C10G , thanks.
Response: 0.377

Prompt: Need self-cleavage of G15U G57A , thanks.
Response: 0.153

Prompt: Need self-cleavage of C16G G68C , thanks.
Response: 0.153

Prompt: Need self-cleavage of A41C G57C , thanks.
Response: 0.226

Prompt: Need self-cleavage of C16U A41C , thanks.
Response: 1.4

Prompt: Need self-cleavage of C48A G57A , thanks.
Response: 0.121

Prompt: Need self-cleavage of U63C U70G , thanks.
Response: 0.248

Prompt: Need self-cleavage of U20A A44G , thanks.
Response: 0.112

Prompt: Need self-cleavage of A28U U67G , thanks.
Response: 0.201

Prompt: Need self-cleavage of C10G G15U , thanks.
Response: 0.851

Prompt: Need self-cleavage of U14G G51C , thanks.
Response: 0.734

Prompt: Need self-cleavage of A35U A45C , thanks.
Response: 0.112

Prompt: Need self-cleavage of A49U G69U , thanks.
Response: 0.193

Prompt: Need self-cleavage of A11C G51C , thanks.
Response: 0.8

Prompt: Need self-cleavage of A43U G69C , thanks.
Response: 0.119

Prompt: Need self-cleavage of C4G C12G , thanks.
Response: 0.216

Prompt: Need self-cleavage of A43U U52A , thanks.
Response: 0.229

Prompt: Need self-cleavage of C50G C66A , thanks.
Response: 0.193

Prompt: Need self-cleavage of U20A G29U , thanks.
Response: 0.165

Prompt: Need self-cleavage of U5G C37G , thanks.
Response: 0.125

Prompt: Need self-cleavage of G19U A26C , thanks.
Response: 0.238

Prompt: Need self-cleavage of U7G C46A , thanks.
Response: 0.0994

Prompt: Need self-cleavage of U9C A30U , thanks.
Response: 0.12

Prompt: Need self-cleavage of A31U G54C , thanks.
Response: 0.119

Prompt: Need self-cleavage of A22G A36G , thanks.
Response: 0.757

Prompt: Need self-cleavage of U14G G25U , thanks.
Response: 0.492

Prompt: Need self-cleavage of U5G A39G , thanks.
Response: 0.0943

Prompt: Need self-cleavage of G51C U67C , thanks.
Response: 0.182

Prompt: Need self-cleavage of U2C C10A , thanks.
Response: 0.117

Prompt: Need self-cleavage of A36G A44U , thanks.
Response: 0.0711

Prompt: Need self-cleavage of G1U A64U , thanks.
Response: 0.119

Prompt: Need self-cleavage of U33G G57C , thanks.
Response: 0.108

Prompt: Need self-cleavage of C12U G40U , thanks.
Response: 0.191

Prompt: Need self-cleavage of C66G U70A , thanks.
Response: 0.273

Prompt: Need self-cleavage of C12G C16G , thanks.
Response: 0.806

Prompt: Need self-cleavage of A44U A47C , thanks.
Response: 0.0912

Prompt: Need self-cleavage of A43U A44G , thanks.
Response: 0.163

Prompt: Need self-cleavage of G15C A39C , thanks.
Response: 0.463

Prompt: Need self-cleavage of G19A U67A , thanks.
Response: 0.264

Prompt: Need self-cleavage of G21A A36U , thanks.
Response: 0.503

Prompt: Need self-cleavage of C18U G29A , thanks.
Response: 0.194

Prompt: Need self-cleavage of A23G A24C , thanks.
Response: 0.648

Prompt: Need self-cleavage of C12G G27A , thanks.
Response: 0.29

Prompt: Need self-cleavage of G21C C46U , thanks.
Response: 0.116

Prompt: Need self-cleavage of G13C C50U , thanks.
Response: 0.281

Prompt: Need self-cleavage of G57U U58C , thanks.
Response: 0.278

Prompt: Need self-cleavage of C3U U14A , thanks.
Response: 0.495

Prompt: Need self-cleavage of A22G G54U , thanks.
Response: 0.423
